The following compounds have recorded pKi on Cathepsin B (Homo sapiens, UniProt P07858).
pKi: −log10 of the molar value.
Quantity kind: pKi

[
  {
    "Structure smiles": "N#C[C@H](COCc1ccccc1)NC(=O)[C@H](CC1CCCCC1)NC(=O)N1CCOCC1",
    "Assay result": 5.98
  },
  {
    "Structure smiles": "O=C(N/N=C/[C@H](COCc1ccccc1)NC(=O)[C@H](CC1CCCCC1)NC(=O)N1CCOCC1)c1ccccc1",
    "Assay result": 6.85
  },
  {
    "Structure smiles": "CS(=O)(=O)C[C@H](N[C@@H](c1ccc(F)cc1)C(F)(F)F)C(=O)NC1(C#N)CC1",
    "Assay result": 5.78
  },
  {
    "Structure smiles": "N#C[C@H](COCc1ccccc1)NC(=O)[C@H](CC1CCCCC1)NC(=O)c1ccncc1",
    "Assay result": 5.72
  }
]

P: CS(=O)(=O)C[C@H](N[C@@H](c1ccc(F)cc1)C(F)(F)F)C(=O)N[C@H](C#N)COCc1ccccc1
Q: N#C[C@H](CCc1ccccc1)NC(=O)[C@H](CC1CCCCC1)NC(=O)c1ccncc1
R: CS(=O)(=O)C[C@H](N[C@@H](c1ccc([N+](=O)[O-])cc1)C(F)(F)F)C(=O)N[C@H](C#N)CCc1ccccc1
S: N#C[C@H](CCc1ccccc1)NC(=O)[C@H](CC1CCCCC1)NC(=O)N1CCOCC1
In: # desc sort on pKi across 4 compounds Put the labels in the order asked and list them.
Out: R, P, Q, S
(R: 7.44, P: 6.80, Q: 5.78, S: 5.11)
